Here, each record is paired with measured viability, T/C data.
- Test system: 945468-187-T-J2-PDC spheroids viability;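 note: spheroids exposed to compounds for seven days before reading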
- protocol: Anticancer human tumor 945468-187-T-J2-PDC patient-derived rectal carcinoma cell line growth inhibition [PI3K]
- assay_context: second compound 10 µM; first compound 0.316 µM; hits give low values; spheroids with HUVEC and MSC
measured_parameter: viability, T/C (%)

* C=CC(=O)N1CCN(c2nc(=O)n(-c3c(C)ccnc3C(C)C)c3nc(-c4c(O)cccc4F)c(F)cc23)C(C)C1 (stereo not drawn) + CC(Nc1ncnc2nc[nH]c12)c1cc2cccc(Cl)c2c(=O)n1-c1ccccc1 | 116
* C=CC(=O)N1CCN(c2nc(=O)n(-c3c(C)ccnc3C(C)C)c3nc(-c4c(O)cccc4F)c(F)cc23)C(C)C1 (stereo not drawn) + Cc1nc(NC(=O)N2CCCC2C(N)=O)sc1-c1ccnc(C(C)(C)C(F)(F)F)c1 | 81.7
* CC1(C)CCC(Nc2ncc(C(F)(F)F)c(-c3c[nH]c4c(P(C)(C)=O)c(C#N)ccc34)n2)CN1 (stereo not drawn) + CC(Nc1ncnc2nc[nH]c12)c1cc2cccc(Cl)c2c(=O)n1-c1ccccc1 | 60.4
